target: Avi-KRAS G12D (1-169) GppNHp/RAF1 RBD-3xFLAG (52-151) (Homo sapiens, UniProt P01116, G12D); construct: Avi-KRAS G12D (1-169); assay: Raf1-KRAS G12D-GppNHP disruption HTRF assay (Biological Example 1); format: binding; details: KRAS G12D-GppNHp/RAF1 RBD HTRF
Sequence (P01116 1-169 isoform P01116-2 G12D): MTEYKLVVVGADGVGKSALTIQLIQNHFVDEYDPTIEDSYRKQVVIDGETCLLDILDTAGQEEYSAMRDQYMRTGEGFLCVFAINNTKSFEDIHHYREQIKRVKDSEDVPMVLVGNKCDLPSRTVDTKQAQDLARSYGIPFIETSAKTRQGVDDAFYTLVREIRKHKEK

{"columns": ["compound", "IC50"],
 "data": [
  ["CCN(c1nc(OC[C@@]23CCCN2C[C@H](F)C3)nc2c(F)c(-c3ccc(F)c4sc(N)c(C#N)c34)c(C(F)(F)F)cc12)[C@H]1C[C@@H](C)N(C(=O)N(C)C)C1 (atropisomer, axis not shown)", "100 to 1000 nM"],
  ["CCN(c1nc(OC[C@@]23CCCN2C[C@H](F)C3)nc2c(F)c(-c3ccc(F)c4sc(N)c(C#N)c34)c(C(F)(F)F)cc12)[C@@H]1CCS(=O)(=O)C1", "100 to 1000 nM"],
  ["N#Cc1c(N)sc2c(F)ccc(-c3c(C(F)(F)F)cc4c(N5CCc6nocc6C5)nc(OC[C@@]56CCCN5C[C@H](F)C6)nc4c3F)c12", "100 to 1000 nM"],
  ["CCN(c1nc(OC[C@@]23CCCN2C[C@H](F)C3)nc2c(F)c(-c3ccc(F)c4sc(N)c(C#N)c34)c(C(F)(F)F)cc12)[C@H]1CCN(C(=O)c2ccon2)C1 (atropisomer, axis not shown)", "< 100 nM"],
  ["C[C@@H]1C[C@H](N(C)c2nc(OC[C@@]34CCCN3C[C@H](F)C4)nc3c(F)c(-c4ccc(F)c5sc(N)c(C#N)c45)c(C(F)(F)F)cc23)CN1C(=O)C1CC1", "100 to 1000 nM"],
  ["CCN(c1nc(OC[C@@]23CCCN2C[C@H](F)C3)nc2c(F)c(-c3ccc(F)c4sc(N)c(C#N)c34)c(C(F)(F)F)cc12)[C@H]1CCN(C(=O)C2CC2)C1", "< 100 nM"],
  ["CC(=O)N1C[C@@H]2CCCN(c3nc(OC[C@@]45CCCN4C[C@H](F)C5)nc4c(F)c(-c5ccc(F)c6sc(N)c(C#N)c56)c(C(F)(F)F)cc34)[C@@H]2C1", "100 to 1000 nM"],
  ["CN(C)C(=O)[C@@H]1CN(c2nc(OC[C@@]34CCCN3C[C@H](F)C4)nc3c(F)c(-c4ccc(F)c5sc(N)c(C#N)c45)c(C(F)(F)F)cc23)CCO1", "100 to 1000 nM"],
  ["CN(C)C(=O)c1nc2c(s1)CN(c1nc(OCC34CCCN3CC(F)C4)nc3c(F)c(-c4ccc(F)c5sc(N)c(C#N)c45)c(C(F)(F)F)cc13)CC2 (stereo not drawn)", "1000 to 10000 nM"],
  ["N#Cc1c(N)sc2c(F)ccc(-c3c(C(F)(F)F)cc4c(N5CCN6C(=O)OCC6C5)nc(OCC56CCCN5CC(F)C6)nc4c3F)c12 (stereo not drawn) [Compound 431]", "1000 to 10000 nM"],
  ["N#Cc1c(N)sc2c(F)ccc(-c3c(C(F)(F)F)cc4c(N5CCc6[nH]ncc6C5)nc(OCC56CCCN5CC(F)C6)nc4c3F)c12 (stereo not drawn)", "1000 to 10000 nM"],
  ["CCC(=O)N1CC[C@@H](N(CC)c2nc(OC[C@@]34CCCN3C[C@H](F)C4)nc3c(F)c(-c4ccc(F)c5sc(N)c(C#N)c45)c(C(F)(F)F)cc23)[C@H]1C (atropisomer, axis not shown) [Compound 523]", "< 100 nM"],
  ["CC(=O)N1CCN(c2nc(OC[C@@]34CCCN3C[C@H](F)C4)nc3c(F)c(-c4ccc(F)c5sc(N)c(C#N)c45)c(C(F)(F)F)cc23)C2CC21 (stereo partly drawn)", "1000 to 10000 nM"],
  ["C[C@@]1(CO)CCN1c1nc(OC[C@@]23CCCN2C[C@H](F)C3)nc2c(F)c(-c3ccc(F)c4sc(N)c(C#N)c34)c(C(F)(F)F)cc12", "> 10000 nM"],
  ["N#Cc1c(N)sc2c(F)ccc(-c3c(C(F)(F)F)cc4c(N5C6COCC5CC(O)C6)nc(OC[C@@]56CCCN5C[C@H](F)C6)nc4c3F)c12 (stereo partly drawn)", "100 to 1000 nM"],
  ["C[C@@H]1[C@H](N(C)c2nc(OC[C@@]34CCCN3C[C@H](F)C4)nc3c(F)c(-c4ccc(F)c5sc(N)c(C#N)c45)c(C(F)(F)F)cc23)CCN1C(=O)C(C)(F)F", "100 to 1000 nM"],
  ["CN(c1nc(OC[C@@]23CCCN2C[C@H](F)C3)nc2c(F)c(-c3ccc(F)c4sc(N)c(C#N)c34)c(C(F)(F)F)cc12)[C@@H]1CC(=O)N2CCC[C@H]12", "100 to 1000 nM"],
  ["N#Cc1c(N)sc2c(F)ccc(-c3c(C(F)(F)F)cc4c(N5CCCN6C(=O)CC[C@H]6C5)nc(OC[C@@]56CCCN5C[C@H](F)C6)nc4c3F)c12", "100 to 1000 nM"],
  ["CC(=O)N1CCC(N(C)c2nc(OC[C@@]34CCCN3C[C@H](F)C4)nc3c(F)c(-c4ccc(F)c5sc(N)c(C#N)c45)c(C(F)(F)F)cc23)CC1", "100 to 1000 nM"],
  ["C[C@@H]1[C@H](N(C)c2nc(OC[C@@]34CCCN3C[C@H](F)C4)nc3c(F)c(-c4ccc(F)c5sc(N)c(C#N)c45)c(Cl)cc23)CCN1C(=O)CF", "100 to 1000 nM"],
  ["CCN(c1nc(OC[C@@]23CCCN2C[C@H](F)C3)nc2c(F)c(-c3ccc(F)c4sc(N)c(C#N)c34)c(C(F)(F)F)cc12)[C@H]1CCN(C(=O)C2(C#N)CC2)C1", "< 100 nM"]
]}

---

This section presents compounds with their documented pIC50 values.
target: Avi-KRAS G12V (1-169) GppNHp/RAF1 RBD-3xFLAG (52-151) (Homo sapiens, UniProt P01116, G12V); construct: Avi-KRAS G12V (1-169); assay: Raf1-KRAS G12V-GppNHP disruption HTRF assay (Biological Example 1); assay type: binding; settings: KRAS G12V, GppNHp-loaded; Table 11
Sequence (P01116 1-169 isoform P01116-2 G12V): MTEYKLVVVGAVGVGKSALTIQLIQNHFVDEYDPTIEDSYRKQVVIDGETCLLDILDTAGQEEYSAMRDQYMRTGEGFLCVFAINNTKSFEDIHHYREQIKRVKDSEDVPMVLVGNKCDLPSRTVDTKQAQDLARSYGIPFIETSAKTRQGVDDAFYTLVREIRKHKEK
pIC50: −log10 of the molar value.

{"columns": ["compound", "pIC50"],
 "data": [
  ["COCCN(C)c1nc(OC[C@@]23CCCN2C[C@H](F)C3)nc2c(F)c(-c3ccc(F)c4sc(N)c(C#N)c34)c(C(F)(F)F)cc12 [Compound 167]", "6.00 to 7.00"],
  ["CN(c1nc(OC[C@@]23CCCN2C[C@H](F)C3)nc2c(F)c(-c3ccc(F)c4sc(N)c(C#N)c34)c(C(F)(F)F)cc12)[C@H]1CCN(S(C)(=O)=O)C1 [Compound 119]", "5.00 to 6.00"],
  ["C[C@@H](O)C1CCN(c2nc(OC[C@@]34CCCN3C[C@H](F)C4)nc3c(F)c(-c4ccc(F)c5sc(N)c(C#N)c45)c(C(F)(F)F)cc23)CC1 [Compound 49]", "6.00 to 7.00"]
]}

---

Target: Avi-KRAS G12D (1-169) GppNHp/RAF1 RBD-3xFLAG (52-151) (Homo sapiens, UniProt P01116, G12D)
Construct: Avi-KRAS G12D (1-169)
Test: Raf1-KRAS G12D-GppNHP disruption HTRF assay (Biological Example 1)
Format: binding
Conditions: KRAS G12D, GppNHp-loaded; class symbols
Description: A protein:protein interaction (PPI) Homogeneous Time Resolved Fluorescence (HTRF) assay was used to determine the effectiveness of compounds of the present disclosure in disrupting KRAS protein and effector RAF1 binding. The assay buffer included: 50 mM Tris pH 7.5, 100 mM NaCl, 5 mM MgCl2, 0.1% BSA, 0.01% Tween, and 10% DMSO. The bead buffer included: 50 mM Tris pH 7.5, and 0.01% Tween 20. […] Data was reported as percentage of activity, with DMSO as 100%. Data was plotted and analyzed using Prism 8.
This section presents molecules with their documented IC50 values.
measured_quantity: IC50

{"columns": ["molecule", "readout_value"],
 "data": [
  ["CCN(c1nc(OC[C@@]23CCCN2C[C@H](F)C3)nc2c(F)c(-c3ccc(F)c4sc(N)c(C#N)c34)c(C(F)(F)F)cc12)[C@@H]1C[C@@H](C)N(C(=O)COC)C1 (atropisomer, axis not shown) [Compound 597]", "0.1 to 1 µM"],
  ["[2H]C1([2H])CN2C[C@H](F)C[C@]2(COc2nc(N3C[C@H]4C[C@@H]3CO4)c3cc(C(F)(F)F)c(-c4ccc(F)c5sc(N)c(C#N)c45)c(F)c3n2)C1 [Compound 567]", "0.1 to 1 µM"],
  ["C/C=C/C(=O)N1CC[C@@H](N(C)c2nc(OC[C@@]34CCCN3C[C@H](F)C4)nc3c(F)c(-c4ccc(F)c5sc(N)c(C#N)c45)c(C(F)(F)F)cc23)[C@H]1C [Compound 670]", "0.1 to 1 µM"],
  ["CCN(c1nc(OC[C@@]23CCCN2C[C@H](F)C3)nc2c(F)c(-c3ccc(F)c4sc(N)c(C#N)c34)c(C(F)(F)F)cc12)[C@H]1C[C@H](C)N(C(=O)N2CC(OC)C2)C1 (atropisomer, axis not shown) [Compound 764]", "< 0.1 µM"],
  ["CCN(c1nc(OC[C@@]23CCCN2C[C@H](F)C3)nc2c(F)c(-c3ccc(F)c4sc(N)c(C#N)c34)c(C(F)(F)F)cc12)[C@H]1C[C@@H]2CCC(=O)N2C1 (atropisomer, axis not shown) [Compound 628]", "< 0.1 µM"],
  ["C[C@H]1Cn2nc(C(=O)N(C)C)cc2CN1c1nc(OC[C@@]23CCCN2C[C@H](F)C3)nc2c(F)c(-c3ccc(F)c4sc(N)c(C#N)c34)c(C(F)(F)F)cc12 (atropisomer, axis not shown) [Compound 610]", "< 0.1 µM"],
  ["CCN1CC[C@H](N(CC)c2nc(OC[C@@]34CCCN3C[C@H](F)C4)nc3c(F)c(-c4ccc(F)c5sc(N)c(C#N)c45)c(C(F)(F)F)cc23)C1=O (atropisomer, axis not shown) [Compound 694]", "< 0.1 µM"],
  ["CN(Cc1cccnc1)c1nc(OC[C@@]23CCCN2C[C@H](F)C3)nc2c(F)c(-c3ccc(F)c4sc(N)c(C#N)c34)c(C(F)(F)F)cc12 (atropisomer, axis not shown) [Compound 698]", "0.1 to 1 µM"],
  ["CCN(c1nc(OC[C@@]23CCCN2C[C@H](F)C3)nc2c(F)c(-c3ccc(F)c4sc(N)c(C#N)c34)c(C(F)(F)F)cc12)[C@H]1C[C@H]2CCOC(=O)N2C1 (atropisomer, axis not shown) [Compound 664]", "< 0.1 µM"],
  ["CCN(c1nc(OC[C@@]23CCCN2C[C@H](F)C3)nc2c(F)c(-c3ccc(F)c4sc(N)c(C#N)c34)c(C(F)(F)F)cc12)[C@H]1CC(=O)N(C)C1 (atropisomer, axis not shown) [Compound 614]", "< 0.1 µM"],
  ["CCC(=O)N1C[C@@H](N(CC)c2nc(OC[C@@]34CCCN3C[C@H](F)C4)nc3c(F)c(-c4ccc(F)c5sc(N)c(C#N)c45)c(C(F)(F)F)cc23)C[C@@H]1COC (atropisomer, axis not shown) [Compound 648]", "< 0.1 µM"],
  ["CCN(CC)C(=O)c1nn2c(c1C)CN(c1nc(OCC34CCCN3CC(F)C4)nc3c(F)c(-c4ccc(F)c5sc(N)c(C#N)c45)c(C(F)(F)F)cc13)CC2 (stereo not drawn) [Compound 740]", "0.1 to 1 µM"],
  ["CCN(c1nc(OC[C@@]23CCCN2C[C@H](F)C3)nc2c(F)c(-c3ccc(F)c4sc(N)c(C#N)c34)c(C(F)(F)F)cc12)[C@H]1CCN(C(=O)OC2COC2)[C@@H]1C (atropisomer, axis not shown) [Compound 809]", "< 0.1 µM"],
  ["C/C=C\\C(=O)N1CC[C@@H](N(C)c2nc(OC[C@@]34CCCN3C[C@H](F)C4)nc3c(F)c(-c4ccc(F)c5sc(N)c(C#N)c45)c(C(F)(F)F)cc23)[C@H]1C [Compound 672]", "0.1 to 1 µM"],
  ["CCN(c1nc(OC[C@@]23CCCN2C[C@H](F)C3)nc2c(F)c(-c3ccc(F)c4sc(N)c(C#N)c34)c(C(F)(F)F)cc12)[C@H]1CCN(C(=O)N2CC(OC)C2)C1 (atropisomer, axis not shown) [Compound 607]", "< 0.1 µM"],
  ["CCN(c1nc(OC[C@@]23CCCN2C[C@H](F)C3)nc2c(F)c(-c3ccc(F)c4sc(N)c(C#N)c34)c(C(F)(F)F)cc12)[C@H]1C[C@H]2CN(C3CC3)C(=O)N2C1 (atropisomer, axis not shown) [Compound 775]", "< 0.1 µM"],
  ["CC(C)C(=O)N1CC[C@H](N(C)c2nc(OC[C@@]34CCCN3C[C@H](F)C4)nc3c(F)c(-c4ccc(F)c5sc(N)c(C#N)c45)c(C(F)(F)F)cc23)C1 (atropisomer, axis not shown) [Compound 786]", "< 0.1 µM"],
  ["CCN(c1nc(OC[C@@]23CCCN2C[C@H](F)C3)nc2c(F)c(-c3ccc(F)c4sc(N)c(C#N)c34)c(C(F)(F)F)cc12)[C@H]1CCN(C(=O)c2cnnn2C)C1 (atropisomer, axis not shown) [Compound 733]", "< 0.1 µM"]
]}

This collection of values is drawn from patent US20260042764A1.
